System: T-47D breast
measurement description: NCI tumour cell line growth inhibition, 48 h
readout name: TGI

Solved cases below.
O=C(O)COc1cc(-c2ccccc2F)nc2cc3c(cc12)OCO3 | > 100 µM
Nc1ccc([As](=O)(O)O)cc1 | > 100 µM
COc1ccc(-c2cnc(SCC(=O)c3c(C)n(C)n(-c4ccccc4)c3=O)n2-c2ccc(OC)cc2)cc1 | > 50 µM

I'd like to know its TGI. The compound in question is COc1cc(/C=C2/CCCc3ccccc3C2=O)cc(OC)c1OC > 100 µM

I'd like to know its TGI. The compound in question is CCOC(=O)C1C(c2ccco2)C2(C#N)C(=N)OC1(C)C2(C#N)C#N (stereo not given) > 100 µM

----------
Test system: 786-0 renal
measurement description: NCI tumour cell line growth inhibition, 48 h
Entry flag: yes if TGI reaches 30 µM; no if it does not.

CC(/C=C/C=C\C=C\C=C(/C)C(=O)NC(C)CO)=C\C(C)C(O)/C(C)=C/C(C)CCc1ccccc1 (stereo unspecified) | no
Clc1cc(Cl)cc(C2SCc3nc4ccccc4n32)c1 (stereo unspecified) | yes
Cc1ccc(C(=O)Nc2ccc(CN3CCN(C)CC3)c(C(F)(F)F)c2)cc1C#Cc1cnc(N)c2ccc(C#N)cc12 | no
O=C1CC2(CCN(CC3COc4ccccc4O3)CC2)C(=O)N1N1CCCCCC1 (stereo unspecified) | yes
S=P(C1CCCCC1)(C1CCCCC1)C(c1cccnc1)N1CCCC1 (stereo unspecified) | yes

Please check the record CCOC(=O)C1Nc2ccc([N+](=O)[O-])cc2[C@H]2OCC[C@@H]12 (stereo partly specified) and state if its TGI is at or above 30 µM. yes

Please check the record C[C@]12CC/C(=N\O)C[C@@H]1CC[C@@H]1[C@@H]2CC[C@]2(C)/C(=N/O)CC[C@@H]12 and state if its TGI is at or above 30 µM. yes

Please check the record Cn1cc(S(=O)(=O)NC(=O)Nc2ccc(Cl)cc2)c(=O)c2ccc(Cl)cc21 and state if its TGI is at or above 30 µM. yes

Please check the record Nc1nc(Cl)cc(NCC2(CO)CC(CCCc3ccccc3)C2)n1 (stereo unspecified) and state if its TGI is at or above 30 µM. yes

Please check the record Cc1c(C)n(CC(O)CNC2CCCCC2C)c2ccccc12 (stereo unspecified) and state if its TGI is at or above 30 µM. no

Please check the record N=C(N)c1ccc(CS(=O)(=O)F)cc1 and state if its TGI is at or above 30 µM. yes

----------
System: SF-539 CNS
measurement description: NCI tumour cell line growth inhibition, 48 h
Items are presented alongside their recorded TGI.

Solved cases below.
Cc1cccc(-c2cccc(COCc3cccc(-c4cccc(CO)n4)n3)n2)n1 | > 50 µM
Cc1nc2ccc(F)cc2c2c1CCN2c1ccccc1 | 44 µM
CN(C)CCNC(=O)c1ccccc1Nc1c(Cl)cccc1Cl | 26.7 µM
CC1=CC[C@@H]2[C@@H](CC[C@@]2(C)O)C(C)(C)[C@H]1CC[C@@H]1[C@@]2(C)CC[C@@H](O)C(C)(C)O[C@@H]2CC[C@]1(C)O | 44 µM
Cn1ncc2c(=O)[nH]c(-c3ccccc3)nc21 | > 100 µM

I'd like to know its TGI. The compound in question is CC(=O)O[C@H]1CC[C@@]2(C)C(=CC[C@@H]3C2CC[C@]2(C)C(=O)NC(=O)CC32)C1 (stereo partly drawn) > 100 µM

I'd like to know its TGI. The compound in question is O=C(CC(O)c1cccnc1)CC(O)c1cccnc1 (stereo not drawn) 53.8 µM

I'd like to know its TGI. The compound in question is CC(=O)NC1C(O)C(O)C(CO)OC1n1nc(SCc2ccccc2)c(=O)[nH]c1=O (stereo not drawn) > 100 µM

I'd like to know its TGI. The compound in question is c1ccc(C2(c3ccccc3)S/C(=C3/SC(c4ccccc4)(c4ccccc4)c4ccccc43)c3ccccc32)cc1 > 100 µM

I'd like to know its TGI. The compound in question is COc1c(N2CCCCC2)c2c(=O)c3ccccc3oc2c2cc(C)oc12 > 100 µM

I'd like to know its TGI. The compound in question is CCOC(=O)c1ccc(OCc2nc3cc(C(F)(F)F)ccc3nc2-c2ccccc2)cc1 > 100 µM

I'd like to know its TGI. The compound in question is CC12CCC(=O)N1c1cc([N+](=O)[O-])ccc1N2 (stereo not drawn) > 100 µM

I'd like to know its TGI. The compound in question is CCOC(=O)C1Nc2ccc([N+](=O)[O-])cc2[C@H]2OCC[C@@H]12 (stereo partly drawn) > 100 µM

I'd like to know its TGI. The compound in question is O=S(=O)(Nc1nc2ccccc2nc1Nc1cccc2ccccc12)c1ccccc1 > 100 µM

I'd like to know its TGI. The compound in question is CCOc1ccccc1NC(=O)CSc1nnc(Cc2ccccc2)o1 53.5 µM

I'd like to know its TGI. The compound in question is CCC(C#N)NCc1ccc(CNC(C#N)CC)cc1 (stereo not drawn) > 100 µM

I'd like to know its TGI. The compound in question is OCCNC(=S)Nc1ccc(-c2nc(N3C[C@H]4CC[C@@H](C3)O4)c3cccn3n2)cc1 0.767 µM

I'd like to know its TGI. The compound in question is CC(SC(=S)N(C)C)C(=O)Nc1nnc(-c2ccc(Cl)cc2)o1 (stereo not drawn) > 100 µM

I'd like to know its TGI. The compound in question is COc1ccc2c(c1)C(=O)c1c-2n(CCCCl)c(=O)c2cc([N+](=O)[O-])ccc12 0.456 µM

I'd like to know its TGI. The compound in question is COc1ccc(C(=C(C#N)C#N)c2ccc(OC)cc2)cc1 > 100 µM

I'd like to know its TGI. The compound in question is NC(N)=NS(=O)(=O)c1ccc(NC(=O)c2cccn3c(=O)c4ccccc4nc23)cc1 > 100 µM

I'd like to know its TGI. The compound in question is O=S1(=O)OCc2ccccc21 > 100 µM

I'd like to know its TGI. The compound in question is Cc1c(C)n(CC(O)CNC2CCCCC2C)c2ccccc12 (stereo not drawn) 30.4 µM

I'd like to know its TGI. The compound in question is S=C(Nc1ccc(Cl)cc1)c1ccc(CN2CCCCC2)s1 > 100 µM

I'd like to know its TGI. The compound in question is O=S(Nc1ccccc1)c1ccccc1Oc1ccccc1 (stereo not drawn) 35.6 µM

I'd like to know its TGI. The compound in question is Nc1cc(N2CCOCC2)nc(=O)n1-c1ccccc1 > 100 µM

I'd like to know its TGI. The compound in question is CN1C(=O)C(C)(C)NS1(=O)=O > 100 µM

I'd like to know its TGI. The compound in question is CCOC(=O)C1C(c2ccco2)C2(C#N)C(=N)OC1(C)C2(C#N)C#N (stereo not drawn) > 100 µM

----------
Items are presented alongside their recorded TGI.
System: SNB-75 CNS
measurement description: NCI tumour cell line growth inhibition, 48 h

Cn1c(=O)c2c(nc(N3CCOCC3)n2CCCNCC(O)c2ccc(O)c(O)c2)n(C)c1=O (stereo not drawn) | > 100 µM
Cc1ccc2oc(=O)cc(CC(=O)O)c2c1 | > 100 µM

Shifting focus to the compound that follows.
I'd like to know its TGI. The compound in question is O=C(/C=C/c1ccc[nH]1)c1ccccc1 > 100 µM

----------
Items are presented alongside their recorded TGI.
Test system: DMS 273 small cell lung
measurement description: NCI tumour cell line growth inhibition, 48 h

CC(C)COC(=O)N1N=NC2C3CC(=O)C(O3)C21 (stereo not drawn) | > 100 µM
C/C(=N\N)C(CN1CCCCC1)C(c1ccccc1)c1c(O)c2ccccc2oc1=O (stereo not drawn) | > 100 µM

Shifting focus to the compound that follows.
I'd like to know its TGI. The compound in question is CN1CCN2c3ccccc3CC(C#N)(C#N)C2C1 (stereo not drawn) > 100 µM

----------
Items are presented alongside their recorded TGI.
Test system: UACC-62 melanoma
measurement description: NCI tumour cell line growth inhibition, 48 h

CN(C)CCn1c2c(c3ccccc31)CCc1ccccc1-2 | 25.9 µM
C=CCNC(=O)ON1C(=O)CCC1=O | > 100 µM
Clc1ccc(C2ON=C(c3ccccc3)N2C23CC4CC(CC(C4)C2)C3)cc1Cl (stereo unspecified) | > 10 µM
O=C1C2c3[nH]c4ccccc4c3C3CCC(c4ccccc4)CC3C2C(=O)N1c1ccccc1 (stereo unspecified) | > 100 µM
NS(=O)(=O)c1ccc(C(=O)O)cc1 | > 100 µM

I'd like to know its TGI. The compound in question is Clc1ccc(-c2c3nc(c(-c4ccc(Cl)cc4)c4ccc([nH]4)c(-c4ccc(Cl)cc4)c4nc(c(-c5ccc(Cl)cc5)c5ccc2[nH]5)C=C4)C=C3)cc1 > 100 µM

I'd like to know its TGI. The compound in question is CCOc1cc(/C=N\O)cc(/C=N/O)c1O > 100 µM

I'd like to know its TGI. The compound in question is Cc1nc2ccccc2c(=O)n1Nc1ccc(C(=O)O)cc1 > 100 µM

I'd like to know its TGI. The compound in question is CC(C)COC(=O)N1N=NC2C3CC(=O)C(O3)C21 (stereo unspecified) > 100 µM
